src = BindingDB's records for doi:10.1016/j.bmcl.2009.09.123

# experiment notes: Inhibition of Tel-fused KDR expressed in mouse BAF3 cells
Form field: IC50 (one value per entry).
parameter measured: IC50 (µM)

record smiles	censoring sign	result value
COc1cc(-n2c(Nc3cc(NC(=O)c4cccc(C(F)(F)F)c4)ccc3C)nc3ccccc32)ncn1	>	10
Cc1ccc(NC(=O)c2cccc(C(F)(F)F)c2)cc1Nc1nc2ccccc2n1-c1cc(NCCCN)ncn1	=	1.47
Cc1ccc(NC(=O)c2cccc(C(F)(F)F)c2)cc1Nc1nc2ccccc2n1-c1cc(N2CCOCC2)ncn1	>	10
Cc1ccc(NC(=O)c2cc(Cl)cc(Cl)c2)cc1Nc1nc2ccccc2n1-c1cc(N)ncn1	=	6.37
CCN1CCN(Cc2ccc(C(=O)Nc3ccc(C)c(Nc4nc5ccccc5n4-c4cc(N)ncn4)c3)cc2Cl)CC1	=	0.03
Cc1ccc(C(=O)Nc2cccc(Cl)c2)cc1Nc1nc2ccccc2n1-c1cc(N)ncn1	=	0.26
Cc1ccc(C(=O)Nc2cccc(Br)c2)cc1Nc1nc2ccccc2n1-c1cc(N)ncn1	=	0.464
Cc1ccc(C(=O)Nc2cccc(C(F)(F)F)c2)cc1Nc1nc2ccccc2n1-c1ncnc(NCCCN2CCN(C)CC2)n1	=	0.133

----------
# experiment notes: Inhibition of Tel-fused LCK expressed in mouse BAF3 cells
T if IC50 is below 200 nM. F if not; exact matches included in F.

record smiles	classification
Cc1cc(NC(=O)c2ccc(C)c(Nc3nc4ccccc4n3-c3cc(N)ncn3)c2)ccn1	F
CCN1CCN(Cc2ccc(C(=O)Nc3ccc(C)c(Nc4nc5ccccc5n4-c4cc(N)ncn4)c3)cc2Cl)CC1	T
Cc1ccc(NC(=O)c2cccc(C(F)(F)F)c2)cc1Nc1nc2ccccc2n1-c1cc(NCCN)ncn1	F
Cc1ccc(C(=O)Nc2cccc(C(F)(F)F)c2)cc1Nc1nc2ccccc2n1-c1cc(NCCCN2CCN(C)CC2)ncn1	T
Cc1cccc(NC(=O)c2ccc(C)c(Nc3nc4ccccc4n3-c3cc(NCCCCN(C)C)ncn3)c2)c1	F
Cc1ccc(NC(=O)c2cccc(C(F)(F)F)c2)cc1Nc1nc2ccccc2n1-c1cc(NCCc2ccccn2)ncn1	T
Cc1ccc(NC(=O)c2cccc(C(F)(F)F)c2)cc1Nc1nc2ccccc2n1-c1cc(NCCO)ncn1	F
COc1cc(-n2c(Nc3cc(NC(=O)c4cccc(C(F)(F)F)c4)ccc3C)nc3ccccc32)ncn1	F
Cc1ccc(C(=O)Nc2cccc(C(F)(F)F)c2)cc1Nc1nc2ccccc2n1-c1cc(NCCCCN(C)C)ncn1	T
Cc1ccc(NC(=O)c2cccc(C(F)(F)F)c2)cc1Nc1nc2ccccc2n1-c1cc(NCCCN)ncn1	F
CCN1CCN(c2cc(C(=O)Nc3ccc(C)c(Nc4nc5ccccc5n4-c4cc(N)ncn4)c3)cc(C(F)(F)F)c2)CC1	T

----------
# experiment notes: Inhibition of Tel-fused LCK expressed in mouse BAF3 cells
Form field: IC50 (one value per entry).

molecule	censoring sign	IC50, nM
Cc1ccc(C(=O)Nc2cccc(C(F)(F)F)c2)cc1Nc1nc2ccccc2n1-c1cc(NCCC#N)ncn1	=	275
Cc1ccc(C(=O)Nc2cccc(C(F)(F)F)c2)cc1Nc1nc2ccccc2n1-c1cc(N)ncn1	=	20
Cc1ccc(NC(=O)c2cc(N3CCN(C)CC3)cc(C(F)(F)F)c2)cc1Nc1nc2ccccc2n1-c1cc(N)ncn1	=	3
Cc1cccc(NC(=O)c2ccc(C)c(Nc3nc4ccccc4n3-c3cc(NCCN4CCN(C)CC4)ncn3)c2)c1	=	762
CCN(CC)CCCCNc1cc(-n2c(Nc3cc(C(=O)Nc4cccc(C(F)(F)F)c4)ccc3C)nc3ccccc32)ncn1	=	52
Cc1ccc(NC(=O)c2cccc(C(F)(F)F)c2)cc1Nc1nc2ccccc2n1-c1cc(N[C@H]2CC[C@H](N)CC2)ncn1	=	392
Cc1ccc(C(=O)Nc2cccc(OC(F)F)c2)cc1Nc1nc2ccccc2n1-c1cc(N)ncn1	=	47
Cc1ccc(C(=O)Nc2cccc(C(C)C)c2)cc1Nc1nc2ccccc2n1-c1cc(N)ncn1	=	7
Cc1ccc(NC(=O)c2cccc(C(F)(F)F)c2)cc1Nc1nc2ccccc2n1-c1cc(N)ncn1	=	7
Cc1ccc(NC(=O)c2cccc(C(F)(F)F)c2)cc1Nc1nc2ccccc2n1-c1cc(NCCCCN)ncn1	=	366
Cc1ccc(NC(=O)c2cc(CN3CCN(C)CC3)n(C(C)(C)C)n2)cc1Nc1nc2ccccc2n1-c1cc(N)ncn1	=	18
Cc1ccc(C(=O)Nc2ccccc2)cc1Nc1nc2ccccc2n1-c1cc(N)ncn1	=	2280
Cc1ccc(NC(=O)c2cccc(Cl)c2)cc1Nc1nc2ccccc2n1-c1cc(N)ncn1	=	84
Cc1ccc(NC(=O)c2cccc(C(F)(F)F)c2)cc1Nc1nc2ccccc2n1-c1cc(N2CCOCC2)ncn1	>	10000
Cc1ccc(C(=O)Nc2cccc(C(F)(F)F)c2)cc1Nc1nc2ccccc2n1-c1cc(NCCN2CCN(C)CC2)ncn1	=	45
Cc1ccc(NC(=O)c2cc(OC3CCN(C)CC3)cc(C(F)(F)F)c2)cc1Nc1nc2ccccc2n1-c1cc(N)ncn1	=	7
Cc1ccc(NC(=O)c2cccc(C(F)(F)F)c2)cc1Nc1nc2ccccc2n1-c1cc(NCCC2CCCN2)ncn1 (configuration not stated)	=	238

----------
# experiment notes: Inhibition of Tel-fused LYN expressed in mouse BAF3 cells

record smiles	IC50
Cc1ccc(NC(=O)c2cccc(C(F)(F)F)c2)cc1Nc1nc2ccccc2n1-c1cc(NCCCCN(C)C)ncn1	399 nM
Cc1ccc(C(=O)Nc2cccc(C(F)(F)F)c2)cc1Nc1nc2ccccc2n1-c1cc(N)ncn1	15 nM
Cc1ccc(C(=O)Nc2cccc(Br)c2)cc1Nc1nc2ccccc2n1-c1cc(N)ncn1	272 nM
Cc1ccc(NC(=O)c2cc(Cl)cc(Cl)c2)cc1Nc1nc2ccccc2n1-c1cc(N)ncn1	3610 nM
Cc1ccc(NC(=O)c2cccc(C(F)(F)F)c2)cc1Nc1nc2ccccc2n1-c1cc(NC2CCN(C)CC2)ncn1	1420 nM
Cc1cccc(NC(=O)c2ccc(C)c(Nc3nc4ccccc4n3-c3cc(N)ncn3)c2)c1	1080 nM
Cc1ccc(NC(=O)c2cccc(C(F)(F)F)c2)cc1Nc1nc2ccccc2n1-c1cc(N)ncn1	14 nM
Cc1ccc(NC(=O)c2cccc(C(F)(F)F)c2)cc1Nc1nc2ccccc2n1-c1cc(NCCN2CCN(C)CC2)ncn1	204 nM
Cc1cccc(C(=O)Nc2ccc(C)c(Nc3nc4ccccc4n3-c3cc(N)ncn3)c2)c1	82 nM
CCN1CCN(Cc2ccc(C(=O)Nc3ccc(C)c(Nc4nc5ccccc5n4-c4cc(N)ncn4)c3)cc2Cl)CC1	10 nM
Cc1ccc(C(=O)Nc2cccc(C(C)(C)C)c2)cc1Nc1nc2ccccc2n1-c1cc(N)ncn1	16 nM
Cc1cn(-c2cc(NC(=O)c3ccc(C)c(Nc4nc5ccccc5n4-c4cc(N)ncn4)c3)cc(C(F)(F)F)c2)cn1	28 nM
Cc1ccc(NC(=O)c2ccncc2Cl)cc1Nc1nc2ccccc2n1-c1cc(N)ncn1	595 nM
Cc1ccc(C(=O)Nc2cccc(C(N)=O)c2)cc1Nc1nc2ccccc2n1-c1cc(N)ncn1	> 10000 nM
Cc1ccc(NC(=O)c2cccc(C(F)(F)F)c2)cc1Nc1nc2ccccc2n1-c1cc(NCCN)ncn1	1470 nM
Cc1ccc(C(=O)Nc2cccc3cnccc23)cc1Nc1nc2ccccc2n1-c1cc(N)ncn1	7840 nM
Cc1ccc(NC(=O)c2cccc(C(F)(F)F)c2)cc1Nc1nc2ccccc2n1-c1cc(N[C@H]2CC[C@H](N)CC2)ncn1	547 nM

----------
Form field: pIC50 (one value per entry).
# experiment notes: Inhibition of Tel-fused LYN expressed in mouse BAF3 cells
pIC50: −log10 of the molar value.

record smiles	censoring sign	pIC50
Cc1ccc(NC(=O)c2cccc(C(F)(F)F)c2)cc1Nc1nc2ccccc2n1-c1cc(NCCCN)ncn1	=	5.95
COc1cc(-n2c(Nc3cc(NC(=O)c4cccc(C(F)(F)F)c4)ccc3C)nc3ccccc32)ncn1	<	5.00
Cc1ccc(C(=O)Nc2cccc(C(F)(F)F)c2)cc1Nc1nc2ccccc2n1-c1cc(NCCN2CCN(C)CC2)ncn1	=	6.95
Cc1ccc(NC(=O)c2ccc(C(C)(C)C)s2)cc1Nc1nc2ccccc2n1-c1cc(N)ncn1	=	8.30
Cc1cc(NC(=O)c2ccc(C)c(Nc3nc4ccccc4n3-c3cc(N)ncn3)c2)ccn1	<	5.00
Cc1ccc(C(=O)Nc2cccc(Cl)c2)cc1Nc1nc2ccccc2n1-c1cc(N)ncn1	<	5.00
CCN(CC)CCCCNc1cc(-n2c(Nc3cc(NC(=O)c4cccc(C(F)(F)F)c4)ccc3C)nc3ccccc32)ncn1	=	6.66
Cc1ccc(NC(=O)c2cc(N3CCN(C)CC3)cc(C(F)(F)F)c2)cc1Nc1nc2ccccc2n1-c1cc(N)ncn1	=	8.22

----------
Form field: IC50 (one value per entry).
# experiment notes: Inhibition of Tel-fused KDR expressed in mouse BAF3 cells

record smiles	IC50, µM
CCN(CC)CCNc1cc(-n2c(Nc3cc(NC(=O)c4cccc(C(F)(F)F)c4)ccc3C)nc3ccccc32)ncn1	1.73
Cc1cccc(NC(=O)c2ccc(C)c(Nc3nc4ccccc4n3-c3cc(NCCCN4CCN(C)CC4)ncn3)c2)c1	1.11
Cc1ccc(NC(=O)c2cccc(C(F)(F)F)c2)cc1Nc1nc2ccccc2n1-c1cc(NCCCN2CCN(C)CC2)ncn1	0.582
Cc1ccc(NC(=O)c2cc(C(C)(C)C)nn2C)cc1Nc1nc2ccccc2n1-c1cc(N)ncn1	0.451
Cc1cn(-c2cc(NC(=O)c3ccc(C)c(Nc4nc5ccccc5n4-c4cc(N)ncn4)c3)cc(C(F)(F)F)c2)cn1	0.02
Cc1cc(NC(=O)c2ccc(C)c(Nc3nc4ccccc4n3-c3cc(N)ncn3)c2)ccn1	0.135
Cc1ccc(NC(=O)c2cc(C3CC3)n[nH]2)cc1Nc1nc2ccccc2n1-c1cc(N)ncn1	0.048
Cc1ccc(C(=O)Nc2cccc(OC(F)F)c2)cc1Nc1nc2ccccc2n1-c1cc(N)ncn1	0.092
